- Assay Explanation: Binding affinity to Influenza A virus (A/New Caledonia/20/1999 (H1N1)) hemagglutininin by avidin-biotin peroxidase complex method
Measurement Label: Kd
Number first, unit second.

Task: Sample H-ARLPRTMVHPKPAQP-NH2 — what was its Kd?
Result: 31 µM

###

- Assay Explanation: Binding affinity to Influenza A virus (A/Wuhan/359/1995 (H3N2)) hemagglutininin by phage ELISA
Measurement Label: Kd (µM)
Give bare numbers, in µM.

H-GRVPVFGLSPLFKVE-OH	0.016
H-EPYGFIAFSRAAHSP-OH	0.02
H-GRPPDSVFRSRGWLS-OH	0.0089

// next entry
Task: What measured Kd goes with H-IDIAFSSLALADISR-OH [IDIAFSSLALADISR] ?
Result: 0.013

###

Exercise: state measured pKd for each of the substances provided.
- Assay Explanation: Binding affinity to wheat germ agglutinin by phage ELISA
- Parameters: species or system Triticum aestivum
Numbers only, as −log10 of the molar value.

H-IDIAFSSLALADISR-OH [IDIAFSSLALADISR]	7.52
H-GRVPVFGLSPLFKVE-OH	7.72
H-EPYGFIAFSRAAHSP-OH	7.52

With those in mind, consider the next substance.
Task: Reported pKd, substance H-GRPPDSVFRSRGWLS-OH : ____
Result: 7.70

###

- Assay Target: Hemagglutinin (Influenza A virus (A/Puerto Rico/8/1934(H1N1)), UniProt P03452)
- Sequence (P03452 18-342 limits assumed): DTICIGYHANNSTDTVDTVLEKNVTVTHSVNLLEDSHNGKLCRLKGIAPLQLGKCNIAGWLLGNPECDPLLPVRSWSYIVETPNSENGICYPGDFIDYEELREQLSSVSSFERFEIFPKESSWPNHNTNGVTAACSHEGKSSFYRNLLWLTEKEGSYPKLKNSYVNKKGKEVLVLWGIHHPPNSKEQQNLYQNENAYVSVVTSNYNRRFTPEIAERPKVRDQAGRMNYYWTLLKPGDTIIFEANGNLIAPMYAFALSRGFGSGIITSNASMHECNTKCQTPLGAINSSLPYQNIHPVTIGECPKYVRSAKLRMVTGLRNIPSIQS
- Sequence (P03452 344-565 limits assumed): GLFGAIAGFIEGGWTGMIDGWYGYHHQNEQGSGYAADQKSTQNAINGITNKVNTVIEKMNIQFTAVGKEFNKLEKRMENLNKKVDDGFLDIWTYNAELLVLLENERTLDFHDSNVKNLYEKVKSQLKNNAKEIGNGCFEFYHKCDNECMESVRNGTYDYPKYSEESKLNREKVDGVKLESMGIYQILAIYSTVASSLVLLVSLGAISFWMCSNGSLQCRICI
- Assay Explanation: Binding affinity to Influenza A virus (A/Puerto Rico/8/34(H1N1)) hemagglutininin by phage ELISA
Measurement Label: Kd (nM)
Answers are plain numbers, in nM.

H-GRPPDSVFRSRGWLS-OH	11
H-IDIAFSSLALADISR-OH [IDIAFSSLALADISR]	19

For every item in the list below, what is its measured Kd?
1. H-EPYGFIAFSRAAHSP-OH
2. H-GRVPVFGLSPLFKVE-OH

Result:
[30, 7.8]

###

- Assay Explanation: Binding affinity to Influenza A virus (A/Wyoming/03/2003 (H3N2)) hemagglutininin by avidin-biotin peroxidase complex method
Measurement Label: Kd (µM)
One number for each entry, in µM.

Task: Dear colleague, I am looking for the recorded Kd of the following substance: H-ARLPRTMVHPKPAQP-NH2
Result: 22

###

- System: Influenza A virus (A/Wyoming/03/2003(H3N2))
- Assay Explanation: Binding affinity to Influenza A virus (A/Wyoming/03/2003 (H3N2)) hemagglutininin by avidin-biotin peroxidase complex method
The source made the active and inactive calls. The rule behind the calls is not given here. Where a SMILES comes first, the peptide text is derived from it. The star is where a group is joined. Biotin = O=C1N[C@H]2[C@H](CS[C@H]2CCCCC(=O)*)N1
Measurement Label: Activity

CSCC[C@H](NC(=O)[C@@H](NC(=O)[C@H](CCCNC(=N)N)NC(=O)[C@@H]1CCCN1C(=O)[C@H](CC(C)C)NC(=O)[C@H](CCCNC(=N)N)NC(=O)[C@H](C)N)[C@@H](C)O)C(=O)N[C@H](C(=O)N[C@@H](Cc1cnc[nH]1)C(=O)N1CCC[C@H]1C(=O)N[C@@H](C)C(=O)N1CCC[C@H]1C(=O)N[C@@H](C)C(=O)N[C@@H](CCC(N)=O)C(=O)N1CCC[C@H]1C(=O)N[C@@H](CCCCNC(=O)CCCC[C@@H]1SC[C@@H]2NC(=O)N[C@@H]21)C(N)=O)C(C)C (H-ARLPRTMVHPAPAQPK(Biotin)-NH2)	inactive
CSCC[C@H](NC(=O)[C@@H](NC(=O)[C@H](CCCNC(=N)N)NC(=O)[C@@H]1CCCN1C(=O)[C@H](CC(C)C)NC(=O)[C@H](C)NC(=O)[C@H](C)N)[C@H](C)O)C(=O)N[C@H](C(=O)N[C@@H](Cc1cnc[nH]1)C(=O)N1CCC[C@H]1C(=O)N[C@@H](CCCCN)C(=O)N1CCC[C@H]1C(=O)N[C@@H](C)C(=O)N[C@@H](CCC(N)=O)C(=O)N1CCC[C@H]1C(=O)N[C@@H](CCCCNC(=O)CCCC[C@@H]1SC[C@@H]2NC(=O)N[C@@H]21)C(N)=O)C(C)C	inactive
CSCC[C@H](NC(=O)[C@@H](NC(=O)[C@H](CCCNC(=N)N)NC(=O)[C@@H]1CCCN1C(=O)[C@H](C)NC(=O)[C@H](CCCNC(=N)N)NC(=O)[C@H](C)N)[C@@H](C)O)C(=O)N[C@H](C(=O)N[C@@H](Cc1cnc[nH]1)C(=O)N1CCC[C@H]1C(=O)N[C@@H](CCCCN)C(=O)N1CCC[C@H]1C(=O)N[C@@H](C)C(=O)N[C@@H](CCC(N)=O)C(=O)N1CCC[C@H]1C(=O)N[C@@H](CCCCNC(=O)CCCC[C@@H]1SC[C@@H]2NC(=O)N[C@@H]21)C(N)=O)C(C)C (H-ARAPRTMVHPKPAQPK(Biotin)-NH2)	inactive
